Biological target: T1, human C1s (human, UniProt P09871 16-688)
T1 construct: also called hC1s; serum-derived human C1s (CompTech)
T1 sequence: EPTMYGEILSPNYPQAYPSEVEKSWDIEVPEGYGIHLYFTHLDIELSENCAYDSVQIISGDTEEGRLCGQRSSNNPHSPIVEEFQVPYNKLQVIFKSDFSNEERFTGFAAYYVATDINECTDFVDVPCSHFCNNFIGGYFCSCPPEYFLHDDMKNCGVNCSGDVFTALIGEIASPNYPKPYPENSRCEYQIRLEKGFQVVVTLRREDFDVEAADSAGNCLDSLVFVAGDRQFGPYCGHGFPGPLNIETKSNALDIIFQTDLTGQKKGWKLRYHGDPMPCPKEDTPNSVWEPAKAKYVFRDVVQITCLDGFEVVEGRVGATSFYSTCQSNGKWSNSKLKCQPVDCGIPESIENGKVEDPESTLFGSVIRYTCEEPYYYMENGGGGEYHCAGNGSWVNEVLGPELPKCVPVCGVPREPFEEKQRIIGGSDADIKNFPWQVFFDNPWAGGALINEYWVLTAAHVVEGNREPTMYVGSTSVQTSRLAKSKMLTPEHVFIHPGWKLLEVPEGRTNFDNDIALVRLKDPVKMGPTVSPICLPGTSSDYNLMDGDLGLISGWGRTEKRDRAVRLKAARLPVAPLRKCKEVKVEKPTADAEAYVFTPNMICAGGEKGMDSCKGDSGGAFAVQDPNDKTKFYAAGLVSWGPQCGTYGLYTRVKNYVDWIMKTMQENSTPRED
Experiment: SPR, Ab captured; pH 7.4, 1.2 mM Ca
value.kind: kon (M⁻¹ s⁻¹)
Express it in M⁻¹ s⁻¹; write the number only.

{"binder": "C1_IPN92H0033-SG4GK/IPN93L0030-SK1 (antibody, human IgG4 S228P, kappa, name in Kabat numbering, V domains shown, also called IPN92H0033/IPN93L0030) VH: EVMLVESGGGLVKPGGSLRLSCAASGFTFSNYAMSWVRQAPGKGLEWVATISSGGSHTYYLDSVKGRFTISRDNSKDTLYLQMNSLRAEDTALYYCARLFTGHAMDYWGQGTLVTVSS VL: QIVLTQSPATLSLSPGERATLSCTASSSVSSSYLHWYQQKPGKAPKLWIYSTSNLASGVPSRFSGSGSGTDYTLTISSLQPEDFATYYCHQYYRHHPITFGQGTKLEIKR", "kon / M⁻¹ s⁻¹": 603000}
{"binder": "C1_IPN92H0026-SG4GK/IPN93L0023-SK1 (antibody, human IgG4 S228P, kappa, name in Kabat numbering, V domains shown, also called IPN92H0026/IPN93L0023) VH: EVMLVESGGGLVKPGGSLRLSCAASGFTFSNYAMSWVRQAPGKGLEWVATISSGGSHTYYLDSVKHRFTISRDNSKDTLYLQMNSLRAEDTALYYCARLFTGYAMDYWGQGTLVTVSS VL: QIVLTQSPATLSLSPGERATLSCTASSSVSSSYLHWYQQKPGKAPKLWIYSTSNLASGVPSRFSGSGSGTDYTLTISSLQPEDFATYYCHQYYRHPPITFGQGTKLEIKR", "kon / M⁻¹ s⁻¹": 523000}

What does the record list as kon for C1_IPN92H0038-SG4GK/IPN009VK3-SK1 (antibody, human IgG4 S228P, kappa, name in Kabat numbering, V domains shown, also called IPN92H0038/IPN009VK3) VH: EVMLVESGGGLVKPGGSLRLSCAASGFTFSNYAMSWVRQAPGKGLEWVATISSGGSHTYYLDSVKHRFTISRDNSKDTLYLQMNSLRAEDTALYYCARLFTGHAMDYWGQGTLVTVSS VL: QIVLTQSPATLSLSPGERATLSCTASSSVSSSYLHWYQQKPGKAPKLWIYSTSNLASGVPSRFSGSGSGTDYTLTISSLQPEDFATYYCHQYYRLPPITFGQGTKLEIKR ? 415000

What does the record list as kon for C1_IPN92H0033-SG4GK/IPN93L0029-SK1 (antibody, human IgG4 S228P, kappa, name in Kabat numbering, V domains shown, also called IPN92H0033/IPN93L0029) VH: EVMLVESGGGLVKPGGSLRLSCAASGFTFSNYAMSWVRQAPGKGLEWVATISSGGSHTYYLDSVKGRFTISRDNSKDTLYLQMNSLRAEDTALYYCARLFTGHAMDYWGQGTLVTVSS VL: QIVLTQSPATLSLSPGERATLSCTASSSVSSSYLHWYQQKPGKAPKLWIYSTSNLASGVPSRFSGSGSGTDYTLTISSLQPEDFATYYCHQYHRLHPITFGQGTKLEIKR ? 479000

What does the record list as kon for C1_IPN92H0038-SG4GK/IPN93L0023-SK1 (antibody, human IgG4 S228P, kappa, name in Kabat numbering, V domains shown, also called IPN92H0038/IPN93L0023) VH: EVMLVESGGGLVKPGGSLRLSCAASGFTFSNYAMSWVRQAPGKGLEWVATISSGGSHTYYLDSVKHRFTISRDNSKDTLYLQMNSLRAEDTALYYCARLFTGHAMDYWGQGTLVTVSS VL: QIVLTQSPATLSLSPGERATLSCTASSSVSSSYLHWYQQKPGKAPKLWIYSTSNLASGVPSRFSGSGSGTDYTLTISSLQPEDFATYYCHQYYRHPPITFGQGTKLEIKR ? 422000
